Target: T1, Ax1 protein, extracellular domain (human, UniProt P30530 26-451)
T1 construct: extracellular domain; also called Axl; Ark
T1 sequence (looked up): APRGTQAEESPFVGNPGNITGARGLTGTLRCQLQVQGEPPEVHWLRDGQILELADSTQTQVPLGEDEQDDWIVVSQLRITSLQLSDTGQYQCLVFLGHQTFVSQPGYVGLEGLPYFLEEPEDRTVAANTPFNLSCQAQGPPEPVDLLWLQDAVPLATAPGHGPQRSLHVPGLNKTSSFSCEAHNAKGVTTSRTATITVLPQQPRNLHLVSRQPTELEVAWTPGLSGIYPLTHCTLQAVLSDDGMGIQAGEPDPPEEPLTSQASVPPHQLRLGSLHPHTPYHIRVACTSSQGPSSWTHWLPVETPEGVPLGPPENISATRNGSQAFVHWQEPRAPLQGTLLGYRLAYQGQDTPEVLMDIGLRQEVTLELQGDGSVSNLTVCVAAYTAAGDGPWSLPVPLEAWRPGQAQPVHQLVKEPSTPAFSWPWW
Test: ELISA, mutant diluted 1:9
# Lookup of reported Affinity ELISA CPE mutant ratio (1:9, pH 6.0/7.4) keyed by entry
Lab note: write the figure by itself, no unit.

>>> result_number("HC-W110H (antibody, V domains shown) VH: EVQLVQSGAEVKKPGATVKISCKVSGYSFTGHTMNWIRQPPGKGLEWIGLIKPSNGGTSYNQKFKGRVTISADKSISTAYLQWSSLKASDTAMYYCAHGHYESYFAMDYHGQGTLVTVSS VL: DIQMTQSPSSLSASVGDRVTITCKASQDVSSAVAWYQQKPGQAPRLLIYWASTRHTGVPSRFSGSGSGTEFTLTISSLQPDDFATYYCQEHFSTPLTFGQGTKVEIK")
0.932
>>> result_number("LC-H091C (antibody, V domains shown, CPE single point mutant) VH: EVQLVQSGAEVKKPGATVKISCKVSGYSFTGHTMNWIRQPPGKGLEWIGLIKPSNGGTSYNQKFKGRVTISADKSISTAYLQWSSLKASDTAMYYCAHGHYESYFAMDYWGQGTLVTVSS VL: DIQMTQSPSSLSASVGDRVTITCKASQDVSSAVAWYQQKPGQAPRLLIYWASTRHTGVPSRFSGSGSGTEFTLTISSLQPDDFATYYCQECFSTPLTFGQGTKVEIK")
3.02

Incoming: I have this binder here, HC-B102H (antibody, V domains shown, CPE single point mutant; printed B102, read as E102 (other rows print HC-E102x)) VH: EVQLVQSGAEVKKPGATVKISCKVSGYSFTGHTMNWIRQPPGKGLEWIGLIKPSNGGTSYNQKFKGRVTISADKSISTAYLQWSSLKASDTAMYYCAHGHYHSYFAMDYWGQGTLVTVSS VL: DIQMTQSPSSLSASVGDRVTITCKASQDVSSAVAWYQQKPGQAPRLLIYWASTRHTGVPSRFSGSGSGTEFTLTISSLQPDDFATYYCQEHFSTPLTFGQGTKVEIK , and I need its recorded Affinity ELISA CPE mutant ratio (1:9, pH 6.0/7.4).
Outgoing: 2.31

Incoming: Quick one: HC-A106G (antibody, V domains shown, CPE single point mutant) VH: EVQLVQSGAEVKKPGATVKISCKVSGYSFTGHTMNWIRQPPGKGLEWIGLIKPSNGGTSYNQKFKGRVTISADKSISTAYLQWSSLKASDTAMYYCAHGHYESYFGMDYWGQGTLVTVSS VL: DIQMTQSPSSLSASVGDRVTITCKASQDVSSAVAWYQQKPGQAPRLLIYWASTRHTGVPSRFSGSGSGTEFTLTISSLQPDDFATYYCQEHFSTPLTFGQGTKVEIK
Outgoing: 2.2

Source listed as patent US20240199746A1.
